# IC50 per record follows
- Assayed Target: Monoacylglycerol Lipase (MAGL) (Homo sapiens (Human), UniProt Q99685)
- Sequence (Q99685 2-303): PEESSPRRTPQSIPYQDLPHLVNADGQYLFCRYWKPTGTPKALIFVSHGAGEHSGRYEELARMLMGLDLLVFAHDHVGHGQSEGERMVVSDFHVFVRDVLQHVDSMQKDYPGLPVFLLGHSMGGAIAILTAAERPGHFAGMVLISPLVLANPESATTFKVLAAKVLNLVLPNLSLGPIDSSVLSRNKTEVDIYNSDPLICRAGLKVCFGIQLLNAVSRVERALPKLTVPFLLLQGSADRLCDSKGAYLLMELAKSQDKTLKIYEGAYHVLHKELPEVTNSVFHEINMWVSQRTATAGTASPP
- Procedure Summary: MAGL inhibition potency (IC50) assay with 4NPA substrate
- Assay type: biochemical
- Assay Conditions: Method 2: Cayman Chemical MAGL enzyme, 10 nM; read-out: MAGL Potency (Detection Method)

Worked examples, 4 compounds total:
COc1ccccc1C(=O)N1CC2(CC(c3cc(C)nn3-c3ccccc3C)C2)C1 1000 to 5100 nM
Cc1cc(C2CC3(C2)CN(C(=O)c2ccc(F)c(O)c2)C3)n(-c2ccccc2C)n1 150 to 500 nM
Cc1cc(C2CC3(C2)CN(C(=O)c2ccc(F)cc2OC(C)C)C3)n(-c2ccccc2C)n1 50 to 150 nM
Cc1ccccc1NC(=O)C1CC2(C1)CN(C(=O)c1cc(O)ccc1F)C2 1000 to 5100 nM

Query: IC50; subject: `Cc1cc(C2CC3(C2)CN(C(=O)c2c(F)ccc(O)c2F)C3)n(-c2ccccc2C)n1`
1000 to 5100 nM

What IC50 value was documented for this compound, `COc1cc(F)ccc1C(=O)N1CC2(CC(c3cc(C)nn3-c3ccccc3C)C2)C1` ?
500 to 1000 nM

# get_value(readout='IC50', item= `Cc1cc(C2CC3(C2)CN(C(=O)c2ccccc2F)C3)n(-c2ccccc2C)n1` )
1000 to 5100 nM

Entry under review: `CCOc1cc(F)ccc1C(=O)N1CC2(CC(C(=O)N(C)c3ccccc3C)C2)C1` . Reported IC50?
150 to 500 nM

====

- Assayed Target: Monoacylglycerol Lipase (MAGL) (Homo sapiens (Human), UniProt Q99685)
- Procedure Summary: MAGL inhibition potency (IC50) assay with 4NPA substrate
- Assay type: biochemical
- Assay Conditions: Method 2: Cayman Chemical MAGL enzyme, 10 nM; read-out: MAGL Potency (Detection Method)
pIC50: −log10 of the molar value.
Endpoint: pIC50

Use these answered entries as a reference point.
Compound	pIC50
CCOc1ccccc1C(=O)N1CC2(CC(c3cc(C)nn3-c3ccccc3C)C2)C1 [Compound 145]	5.29 to 6.00
Cc1cc(C2=CC3(C2)CN(C(=O)c2cc(O)ccc2F)C3)n(-c2ccccc2C)n1 [Compound 120]	6.30 to 6.82
Cc1cc(C2CC3(C2)CN(C(=O)c2cc(O)ccc2Cl)C3)n(-c2ccccc2C)n1 [Compound 140]	6.82 to 7.30

Now for a further compound.
Quick one: pIC50 for CCOc1cc(F)ccc1C(=O)N1CC2(CC(c3cc(C)nn3-c3ccccc3C)C2)C1 [Compound 146] ?
6.30 to 6.82

====

- Assayed Target: Monoacylglycerol Lipase (MAGL) (Homo sapiens (Human))
- Procedure Summary: MAGL inhibition potency (IC50) assay with 4NPA substrate
- Assay type: biochemical
- Assay Conditions: Method 14: Reaction Biology MAGL enzyme, 6 nM; read-out: MAGL Potency (Detection Method)
pIC50: −log10 of the molar value.
Endpoint: pIC50

Some compounds with recorded pIC50:
Cc1cc(C2CC3(C2)CN(C(=O)c2cc(O)ccc2F)C3)n(-c2ccccc2C(F)(F)F)n1 > 7.30
Cc1ccccc1-c1c(C)cnn1C1CC2(C1)CN(C(=O)c1cc(O)ccc1F)C2 6.30 to 6.82
Cc1cc(C2CC3(C2)CN(C(=O)c2ccc(F)cc2OC2CC2)C3)n(-c2ccccc2C)n1 6.30 to 6.82
Cc1cc(C2CC3(C2)CN(C(=O)c2cc(O)c(C)cc2F)C3)n(-c2ccccc2C)n1 6.82 to 7.30

Return reported pIC50; argument: `Cc1ccccc1-c1nn(C2CC3(C2)CN(C(=O)c2cc(O)ccc2F)C3)cc1C`
> 7.30
